Sourced from the supplement of paper PMC10065799

# Test system: AncSZ
# assay-overview: phosphorylation enrichment, bacterial display (enrichment ratio); higher = better substrate or ligand; peptides without Tyr show the background;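 further: 11-residue human phosphosite peptides and single-mutation variants displayed on the E. coli surface, counted by deep sequencing, each peptide's frequency after selection divided by its frequency in the unselected input library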;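 further: frequency after pTyr selection over input frequency; kinase dosed for 20-30% of maximal phosphorylation in three min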
Use Satisfied when the recorded phosphorylation enrichment is no lower than 1; use Not satisfied when it is lower.

residue-codes: EVESPYEVRDF [GIGYF2_Y1168_H1171R_YF]
group: Satisfied

residue-codes: DDHFTYSRFPW [LY75_Y888_YF]
group: Satisfied

residue-codes: QGIIIYRAAYF [SLC25A4_Y187]
group: Satisfied

residue-codes: RNFDTYTAGLS [RHBDD1_Y264_YF]
group: Not satisfied

residue-codes: WNDPDYMDSRR [GAA_Y407_L405P]
group: Satisfied

residue-codes: ESMQSYDLDYP [UNC13B_Y243_D238E]
group: Satisfied

residue-codes: LSQQVYRVNLS [FAT4_Y480_F475L]
group: Not satisfied

residue-codes: LKSEMYQKLLK [RGS13_Y146]
group: Satisfied

residue-codes: EGLKVYVNGTL [ADGRD1_Y183]
group: Satisfied

residue-codes: ADLLVYIKALN [HPRT1_Y81_D80V]
group: Satisfied

Query string: Item HNQDGYSYLSR [LDLR_Y845_P848L] with phosphorylation enrichment of 1 or above?
Result string: Not satisfied

Query string: Item ESVNTYLQTSP [NAT1_Y208_M205V] with phosphorylation enrichment of 1 or above?
Result string: Not satisfied

* * *

# System: Fer (mouse)
# assay-overview: phosphorylation enrichment, bacterial display (enrichment ratio); higher = better substrate or ligand; peptides without Tyr show the background
measurement-type: phosphorylation enrichment
Please state the value as a number alone, without comment.

Look over these answered cases.
residue-codes: NLTVNYKKNLI [SQOR_Y259]
phosphorylation enrichment: 0.427
--
residue-codes: NVVVPYEPPEV [TP53_Y220_S215N]
phosphorylation enrichment: 0.58
--
residue-codes: VCDALYPPGPP
phosphorylation enrichment: 0.489
--
residue-codes: SGPRRYTIATL [TTR_Y125_A129T]
phosphorylation enrichment: 0.361
--
residue-codes: SVVVPCEPPEV [TP53_Y220_Y220C]
phosphorylation enrichment: 0.525

Query string: Please supply the value of reported phosphorylation enrichment for the item EFGFRYELVQF [UGGT2_Y1289_Y1285F_YF]
Result string: 0.887

Query string: Please supply the value of reported phosphorylation enrichment for the item GGPTYYIDTNA [ACTL6A_Y69]
Result string: 0.407

Query string: Please supply the value of reported phosphorylation enrichment for the item MPLTEYLKRIK [CNGB3_Y200]
Result string: 0.345

Query string: Please supply the value of reported phosphorylation enrichment for the item TEQDPYNSIVR [MMUT_Y364_N366S]
Result string: 0.488

Query string: Please supply the value of reported phosphorylation enrichment for the item ANNPLYKEATS [ITGB3_Y773]
Result string: 0.228

Query string: Please supply the value of reported phosphorylation enrichment for the item TSQSQYFSFRE [CCDC170_Y323]
Result string: 0.461

Query string: Please supply the value of reported phosphorylation enrichment for the item ALWYIYSHTRS [ENG_Y614]
Result string: 0.572

Query string: Please supply the value of reported phosphorylation enrichment for the item IVAREYFSEAD [CAMK2A_Y106_YF]
Result string: 0.563

Query string: Please supply the value of reported phosphorylation enrichment for the item HYPDVYAWEQL [ALX3_Y181_R183W]
Result string: 13.2

Query string: Please supply the value of reported phosphorylation enrichment for the item AKKMKYFEGVS [PRKDC_Y682_I680M]
Result string: 0.311

Query string: Please supply the value of reported phosphorylation enrichment for the item NAMRRHIEEFQ [MNS1_Y244_Y244H]
Result string: 0.346

Query string: Please supply the value of reported phosphorylation enrichment for the item SARHHYESLQT [BIN1_Y157]
Result string: 0.499

Query string: Please supply the value of reported phosphorylation enrichment for the item FSDQVYRQHRK [TH_Y230_R233H]
Result string: 0.355

Query string: Please supply the value of reported phosphorylation enrichment for the item DDHFTYSRFPW [LY75_Y888_YF]
Result string: 0.609
